# targetOrSystem: HIV-1 protease (Human immunodeficiency virus type 1 group M subtype B, UniProt P04585)
# assayComment: biochemical
pKi: −log10 of the molar value.
Parameter pKi: see the listing below.

COC(=O)N[C@H](C(=O)NN(Cc1ccccc1)C[C@@](O)(Cc1ccccc1)C(=O)N[C@H]1c2ccccc2C[C@H]1O)C(C)C [Compound 14]; > 8.00
CC(C)(C)[C@H](NC(=O)OCc1ccccc1)C(=O)NN(Cc1ccccc1)C[C@@](O)(Cc1ccccc1)C(=O)N[C@H]1c2ccccc2C[C@H]1O [Compound 13]; 7.30 to 7.96
CC(C)(C)[C@H](NS(C)(=O)=O)C(=O)NN(Cc1ccccc1)C[C@@](O)(Cc1ccccc1)C(=O)N[C@H]1c2ccccc2C[C@H]1O [Compound 17]; 7.00 to 7.30
COC(=O)N[C@H](C(=O)NN(Cc1ccccc1)C[C@@](O)(Cc1ccccc1)C(=O)N[C@H]1c2ccccc2C[C@H]1O)C(C)(C)C [Compound 15]; > 8.00
CC(C)(C)[C@H](NC(=O)NCc1ccccc1)C(=O)NN(Cc1ccccc1)C[C@@](O)(Cc1ccccc1)C(=O)N[C@H]1c2ccccc2C[C@H]1O [Compound 18]; 7.30 to 7.96

Query compound follows.
# value lookup — system HIV-1 protease (Human immunodeficiency virus type 1 group M subtype B, UniProt P04585), readout pKi, item CC(C)[C@H](NC(=O)OCc1ccccc1)C(=O)NN(Cc1ccccc1)C[C@@](O)(Cc1ccccc1)C(=O)N[C@H]1c2ccccc2C[C@H]1O [Compound 11]
7.30 to 7.96
